Attribution: patent US20190002452A1

Molecular target: human farnesol receptor protein hFXR (Homo sapiens, UniProt Q96RI1)
Construct: hexahistidine (His6)
Experiment: AlphaScreen assay of FXR agonist activity in vitro: effect on binding between human farnesol receptor protein and its coactivator (SRC1-2)
Format: biochemical
Conditions: hFXR 100 nM, peptide bSRC1-2 50 nM, 2 hr incubation at room temperature
EC50 reference
property-label: EC50

# molecule, property-label, endpoint-value
measured = [
    ("O=C(O)c1ccc2nc(N3CC4CCC(OCc5c(-c6c(Cl)cccc6Cl)noc5C5CC5)CC4C3)sc2c1 (stereo not shown) [Example 25]", "EC50", "100 to 1000 nM"),
    ("O=C(O)c1ccc2nc(N3CCc4cc(OCc5c(-c6c(Cl)cccc6Cl)noc5C5CC5)ccc4C3)sc2c1 [Example 23]", "EC50", "< 100 nM"),
    ("CS(=O)(=O)NC(=O)c1ccc2nc(N3CCC4(CC(OCc5c(-c6c(Cl)cccc6Cl)noc5C5CC5)C4)C3)sc2c1 (stereo not shown) [Example 47]", "EC50", "100 to 1000 nM"),
    ("O=C(O)c1ccc2nc(N3CC4(CC(OCc5c(-c6c(Cl)cccc6Cl)noc5C5CC5)C4)C[C@H]3CF)sc2c1 (stereo partly shown) [Example 16]", "EC50", "100 to 1000 nM"),
    ("O=C(O)c1cccc(N2CCC3(CC(OCc4c(-c5c(Cl)cccc5Cl)noc4C4CC4)C3)C2)n1 (stereo not shown) [Example 36]", "EC50", "100 to 1000 nM"),
    ("O=C(O)c1ccc2nc(N3CCC4(CC(OCc5c(-c6ccccc6C(F)(F)F)noc5C5CC5)C4)C3)oc2c1 (stereo not shown) [Example 42]", "EC50", "100 to 1000 nM"),
    ("O=C(O)c1cccc(C(=O)N2CC3CCC(C2)C3OCc2c(-c3c(Cl)cccc3Cl)noc2C2CC2)c1 (stereo not shown) [Example 5]", "EC50", "> 1000 nM"),
]

* * *

Target: human farnesol receptor protein hFXR (Homo sapiens)
Construct: hexahistidine (His6)
Sequence (Q96RI1 1-486): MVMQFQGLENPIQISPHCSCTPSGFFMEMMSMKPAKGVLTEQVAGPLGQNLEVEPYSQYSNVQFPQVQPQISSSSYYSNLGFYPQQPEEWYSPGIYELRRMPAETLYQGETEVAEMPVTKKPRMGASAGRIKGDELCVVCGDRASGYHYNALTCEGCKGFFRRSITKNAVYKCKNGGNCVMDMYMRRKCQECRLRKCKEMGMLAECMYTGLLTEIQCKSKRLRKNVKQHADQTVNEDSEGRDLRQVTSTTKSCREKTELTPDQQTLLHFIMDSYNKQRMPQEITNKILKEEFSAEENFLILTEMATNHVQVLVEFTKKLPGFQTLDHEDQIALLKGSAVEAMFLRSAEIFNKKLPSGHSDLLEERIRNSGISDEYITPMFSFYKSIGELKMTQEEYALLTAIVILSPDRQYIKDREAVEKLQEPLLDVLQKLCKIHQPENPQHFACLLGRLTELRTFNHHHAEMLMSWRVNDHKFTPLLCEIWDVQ
Assay: AlphaScreen assay of FXR agonist activity in vitro: effect on binding between human farnesol receptor protein and its coactivator (SRC1-2)
Assay type: biochemical
Details: hFXR 100 nM, peptide bSRC1-2 50 nM, 2 hr incubation at room temperature
EC50 reference

# compound, EC50
rows = [
    ("O=C(O)c1ccc2nc(N3CCC(COCc4c(-c5c(Cl)cccc5Cl)noc4C4CC4)CC3)sc2c1 [Example 48]", "100 to 1000 nM"),
    ("O=C(O)c1ccc2nc(N3CC4CC(OCc5c(-c6c(Cl)cccc6Cl)noc5C5CC5)CC4C3)sc2c1 (stereo not drawn) [Example 26]", "< 100 nM"),
    ("C[C@@H]1CC2(CC(OCc3c(-c4c(Cl)cccc4Cl)noc3C3CC3)C2)CN1c1nc2c(F)cc(C(=O)O)cc2s1 (stereo partly drawn) [Example 17]", "100 to 1000 nM"),
]
